Tested on: Wolbachia pipientis
measurement_description: Anti-Wolbachia Cell-Based Screen
Type: functional
Set-up: scale not given: in the data most compounds retested in dose-response had high values
settings: 5 µM
In all, about 48,000 compounds went through this assay and about 13,000 (27%) showed an effect of 50% or more. The list shows a part of the results.
Overview of reported Percent Effect across a group of molecules:
Hi! Could you send only the number? It should be in %, unit omitted.

Return value of Percent Effect for input CS(=O)(=O)N1CC2(CCN(C3CCCCC3)CC2)Cc2ccccc21 , no commentary.
114.5

Return value of Percent Effect for input CS(=O)(=O)N1CCc2[nH]cnc2C12CCN(C1CCOCC1)CC2 , no commentary.
0.6109
